- Test: Toxicity liver stage against HepG2, at 10uM
- Assay type: cell-based
- Set-up: test concentration 10 uM, cell line HepG2-A16-CD81EGFP
- Experimental Conditions: human, HepG2-A16-CD81EGFP cells; read-out: INHIBITION
Measurement Name: cytotoxicity at 10 µM (%)
Please respond with the number in % and leave the unit unwritten.

Past entries and their recorded results:
* O=C(Cn1nc(Br)nc1Br)N1CCCC1 | 5.38
* CCc1noc(C)c1C(=O)NCc1c(C)nn(CCOC)c1C | -9.35
* CC(Nc1nc2c(cnn2C)c(=O)[nH]1)c1ccc2c(c1)CCCC2 (centres undefined) | 9.62
* CC(C)c1n[nH]c(C2CN(C(=O)CCc3cscn3)CCO2)n1 (centres undefined) | -1.51
* O=C1NCCCCC1NC(=O)N1CCc2ccccc21 (centres undefined) | -0.734
* OCCNC1CSCCc2ccccc21 (centres undefined) | -1.44

Moving on to another compound below.
Recorded result, O=C(C1CC=CC1)N1CCC2(CCN(Cc3ccccn3)C2=O)C1 (centres undefined) , cytotoxicity at 10 µM: 0.908
